The origin of these recorded values is a protein production outcome set (Wang et al. 2014).

- METHOD: label from the status in PepcDB records
OUTCOME_MEASURE: protein production

CHAIN	ENDPOINT_RESULT
MKGSRKGESRAKESKPREPGTRRCAKCGRLDFILKKKMGIKSGFTFWNLVFLLTLSCVKGFIYTCGGTLKGLNGTIESPGFPYGYPNGANCTWVIIAEERNRIQIVFQSFALEEEYDYLSLYDGHPHPTNFRTRLTGFHLPPPVTSTKSVFSLRLTSDFAVSAHGFKVYYEELQSSSCGNPGVPPKGVLYGTRFDVGDKIRYSCVTGYILDGHPQLTCIANSVNTASWDFPVPICRAEDACGGTMRGSSGIISSPGFPNEYHNNADCTWTIVAEPGDTISLIFTDFQMEEKYDYLEIEGSEPPTIWLSGMNIPPPIISNKNWLRLHFVTDSNHRYRGFSAPYQVKKAIDFKSRGFKLFPGKDNSNKFSLLNEGGIKTASNLCPDPGEPENGKRFGSDFR	failed
MSIESLWSSRFQQHIQNIITYFARMINGLLYSFIFISCVGAYYYAQFLKASPSKGISLIIITIVLTFIITRCPIRTFIQKPDAVYLLALEEKLTSYFKKSLLYNYIMQLFPLLFTFLILVPLAMQSLQLTVPFLCTIFIVLMITKAWNMYIHWMWRDSHEKNIWLIIRITCNALIIYMLFYSANVLILGGLLLLLAFLLLYTKKQPTKRIPWDYIIEQEEKMNVRFYQFASIFTDVPQLNKQVNKRKWLTNWIEPLLHKKRATFFYLHTLAFLRGNDYFGIYIRLRLIGAFALYFIPNIYVKGAIAYIVLYMISMQLRSLWKYFSGNIIVALYPIHTEERMKQFLHLIFILLSIQLIVFSSVILIATGQFLHILIIMIVGLLWIKFIIVPKTKQRISAF	failed
MKRADFCIIGLGRFGMQVAHSLKENNFTLVLIDNDQHKTNTAAQEFDHVVCCDGSNLTALAELQLEEFSAVIVGVTNIEASIMICANLRELGQKNIIARAKNEVHNRVLRTMGIREALIPEKIVGKNLVIRLIHGMETEIINLGNDILFVRAPVNNKKLFNRTLGEINIREHTNANLISIMRNGKDVVFPLGPNTQIQPGDVITAVCQLSGVNQYLRYINPNDKNKYKASE	failed
MKVRADFAFEKVARDWFVRWSKGRSEKYAGQVMRNFERWVFPAIGNLDIRQVRTADVVGCLRVMEARGIVDTLRKTKNSLKMVFAFAVGSGMMEINPVAQIGSGVFERLEHHHHHH	not failed
MAVVGFDAAKISILDENEKVTDTFTIDRSSGGTIEANISGLAPNMNVVYASNVPFYVSAKGTSEVKCELTVADLDDLGTEAVNKILGREQDSTTKITKVGVNTTPPYCVLELISKDKQGKGLFLGLLKGKFTFDGEDMKTSDNNGSQLSEDKVTMQCISRKDGYIYAKAKEADGTTQADFEKFIMPAATAPAAG	failed
MDRRDAMGLSGSGSYYIHRGLSGSGPPTFHGSPQQQQGLRHLPNQNSPFGSGSTGFGSPSLHGDPSLATAAGGAGALPHHIGVNMIAPPPPPSETPMKRKRGRPRKYGQDGSVSLALSSSSVSTITPNNSNKRGRGRPPGSGKKQRMASVGELMPSSSGMSFTPHVIAVSIGEDIASKVIAFSQQGPRAICVLSASGAVSTATLIQPSASPGAIKYEGRFEILALSTSYIVATDGSFRNRTGNLSVSLASPDGRVIGGAIGGPLIAASPVQVIVGSFIWAAPKIKSKKREEEASEVVQETDDHHVLDNNNNTISPVPQQQPNQNLIWSTGSRQMDMRHAHADIDLMRG	failed
MNSKSQQQEQQPIVFVTGTDTDVGKTFVSTLLVHKWKAAYWKPVQTGIESDQGDSETLKNFKIAASTWQPPIFTPTYALQKPLSPLQAMEYEPNVDIRLLDFVVPEEWSAENPLVVEGAGGVCVPITRKLEITTDLIKHLIETSGHPVYVVVVARSGLGTLNHTLLTWNHLCDNGLRSHLFGVILNGEPNEGNVQALKKFGVNIMAQVAQCTTAHDQDMELHELPSVESLMTQQDVE	failed
RVTVMLAAFEGWNDAGEAASDALHYLNKLWDGKKVATVDAEEYYDFQFTRPTVRRTSSGARKVKWPSTRIYKAEVPDSNVDVVLVLGTEPSYRWRAYTTELLVHAEALKVDSVILVGALLADVPHSRPIPVSTTTEDSSLRERLNLEASQYEGPVGIVGVLAEFAMLAGLPTVSLWAAVPHYVAQPPSPKAQLAILHRIEDLLQVPLDSQALAEESEAWERGVDELATEDPEITAYVRQLEEAKDTADLPE	not failed
MPRLAISRLWPMLTAVALLSPLATAQQGQTLRAGELTVTLTPTQPDSNGWYRAGRLELQGTDEGIRGVETSRLRGAVLGELSPDGRWLSVLGTGGGYVQLWNVATAERQFTFLAHDKKSYDARLAAFSPDSRRLVFYSYPNELSLWDTATGVRVKLLSDVRKGGWWTADADAVFSPDGKTFVVTGGGGGAQLFDTRTGDLLQTFDRPCQSFGPGSPGGFWRGAVGATFSADGKNVAVLYAGGAARLYGVAGAGALAKASWKLDNFKPSQMRFWAGKLTLNGRELSGKTPNGLSFTLTF	failed
MELLKIDCLGKSLRLEGSLAGWQLLFWDNNLVSQKAASVDNGGLKVHQFELTQHHSQLASDSGEAQVLENKILVRLETDVVWQPFRFDYRLLVDEEVIAQGTRTEKDIERQMPEIPVTAPQKFSFVGLASLGFKLLKSAKVIKVVLAGASVAAYSWLFSFQFALALIACLVFHEYGHIRAMKYFGMKTKGIYLIPFMGGLALSDEKINTRWQDVVISIMGPTFGLLMSVGSLIAYHFTDNIFFAGLAAFNALLNLFNLLPILPLDGGHILKSISFSMNSIMGLIACVIGAAFGVYISYTLGLALLGFLLLIGSLEIVFEWRSRHQSHLLPLDRYGQIFSTIWYLATVAALVGIIWHLAGTGDDMLSLPLQILRS	failed
